Below is a list of entries, each paired with its recorded Kd value.
System: RTEL1 CT-L (entire C-terminal region) (Homo sapiens)
Sequence (Q9NZ71 whole entry, looked up): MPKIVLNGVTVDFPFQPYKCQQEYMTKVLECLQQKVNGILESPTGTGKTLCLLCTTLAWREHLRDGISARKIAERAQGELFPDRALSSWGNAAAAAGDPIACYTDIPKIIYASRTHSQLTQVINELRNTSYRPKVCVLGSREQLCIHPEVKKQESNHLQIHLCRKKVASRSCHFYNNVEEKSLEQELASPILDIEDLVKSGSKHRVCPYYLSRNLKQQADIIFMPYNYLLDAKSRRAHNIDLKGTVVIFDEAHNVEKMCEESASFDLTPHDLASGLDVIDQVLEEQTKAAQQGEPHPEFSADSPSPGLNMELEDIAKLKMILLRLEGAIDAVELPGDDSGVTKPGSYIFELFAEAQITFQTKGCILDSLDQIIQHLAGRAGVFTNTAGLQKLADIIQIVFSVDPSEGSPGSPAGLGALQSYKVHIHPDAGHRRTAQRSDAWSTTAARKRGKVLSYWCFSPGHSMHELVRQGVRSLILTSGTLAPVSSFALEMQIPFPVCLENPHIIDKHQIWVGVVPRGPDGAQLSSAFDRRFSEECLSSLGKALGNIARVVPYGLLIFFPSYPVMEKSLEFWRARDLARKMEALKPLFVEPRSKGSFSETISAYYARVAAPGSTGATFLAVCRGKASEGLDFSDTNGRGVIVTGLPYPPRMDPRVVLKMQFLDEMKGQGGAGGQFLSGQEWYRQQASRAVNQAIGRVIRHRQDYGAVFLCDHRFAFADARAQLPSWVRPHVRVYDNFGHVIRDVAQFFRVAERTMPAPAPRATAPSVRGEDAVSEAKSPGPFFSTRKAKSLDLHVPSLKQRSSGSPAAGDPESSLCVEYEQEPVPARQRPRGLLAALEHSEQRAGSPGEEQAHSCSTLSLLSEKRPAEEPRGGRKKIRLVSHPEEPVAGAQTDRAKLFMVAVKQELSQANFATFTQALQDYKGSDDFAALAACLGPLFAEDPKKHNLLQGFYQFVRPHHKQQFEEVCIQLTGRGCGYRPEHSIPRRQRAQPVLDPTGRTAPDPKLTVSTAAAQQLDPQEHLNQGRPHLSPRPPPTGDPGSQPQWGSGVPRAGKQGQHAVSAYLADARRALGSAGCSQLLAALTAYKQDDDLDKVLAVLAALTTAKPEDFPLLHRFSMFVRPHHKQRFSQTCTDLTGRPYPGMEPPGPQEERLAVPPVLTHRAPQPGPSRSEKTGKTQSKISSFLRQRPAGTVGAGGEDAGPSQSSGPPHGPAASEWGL
Procedure summary: EMSA
Conditions used: 0.5 mM Mg2+; 20 mM Tris pH 7.5, 50 mM KCl, 0.5 mM MgCl2, 10% glycerol, 0.1% Igepal, 10 nM substrate; EMSA at room temperature 15 min (0-160 nM protein), FA at 25 C …
Reply numerically in nM, unit not repeated.

Sequence text: CTACTACCCCCACCCTCACAACCTTTTTTTTTTTTTTT / UUUUUUUUUUUUUUUGGUUGUGAGGGUGGGGGUA [DNA/RNA fork (D1L:R3L)]
Kd [nM]: 52

Sequence text: GTACCCGGGGATCCTCTAGAGTCGACCTGCAGGCATGCAAGCTTGGCACTGGCCGTCGTTTTACAAC / GTTGTAAAACGACGGCCAGTGCCTTTTCCCAGCCTCAATCTCATCACTCTAGAGGATCCCCGGGTAC [Bubble (D9:D11)]
Kd [nM]: 27

// moving on: another record for Kd
Form: sequence = CTACTACCCCCACCCTCACAACCTTTTTTTTTTTTTTT / TTTTTTTTTTTTTTTGGTTGTGAGGGTGGGGGTAGTAG [DNA fork (D1L:D3L)] ; Kd = 43

# credit: paper PMC11344278
